Assay method text: Primary qHTS for inhibitors of nuclear receptor binding SET domain protein 2 (NSD2) in an isogenic RCH-ACV NSD2 p.E1099K mutant (9B) (AID 1645876); further: nearly all actives have a fitted effect of over 70% in size; further: potency means the concentration at half of the fitted maximal effect
Experimental parameters: RCH-ACV (leukaemia line) NSD2 E1099K (9B) viability, CellTiter-Glo, 72 h; series mostly up to 44.9 µM
Results filed as inconclusive are left out. The source made the active and inactive calls. The call rests on the fitted dose curve; in most records, active means well fitted inhibition curve with a large enough effect; inconclusive means small, poorly fitted or top-dose-only effect; inactive means flat fitted curve, though single readings scatter.
Measurement label: Potency

Please review the following examples before continuing.
For the compound COc1cc(C)[nH]c(=O)c1CN1CCc2c(Cl)cc([C@H](OC)C3COC3)c(Cl)c2C1=O , report Potency.
inactive

For the compound C[C@@H]1C[C@H](N)C[C@H](c2ccncc2NC(=O)c2ccc(F)c(-c3c(F)cccc3F)n2)C1 , report Potency.
14.8 µM (active)

For the compound CN(C)CCN1C(=O)c2cccc3cc(NC(N)=O)cc(c23)C1=O , report Potency.
2.35 µM (active)

For the compound CCNCCS(=O)(=O)NC[C@@]1(c2ccccc2)SC(NC(=O)C(C)(C)C)=NN1C(=O)C(C)(C)C , report Potency.
0.0093 µM (active)

For the compound CCOC(=N)c1nc2ccc3ncnc(Nc4cc(F)c(F)cc4Cl)c3c2s1 , report Potency.
inactive

For every item in the list below, what is its measured Potency?
1. CC(=O)c1ccc2c(c1)c1cc(C(C)=O)ccc1n2CCNC(C)C
2. O=S(=O)(Nc1ccc(-c2cccnc2)c2cccnc12)c1cccc(C(F)(F)F)c1
3. COc1cccc(-c2c(C)n(Cc3c(F)cccc3C(F)(F)F)c(=O)n(C[C@H](NCCCC(=O)O)c3ccccc3)c2=O)c1F

0.742 µM (active)
7.42 µM (active)
inactive

For the compound CC(C)Oc1ccc(-c2nc(-c3cccc4c3CC[C@@H]4NCCO)no2)cc1C#N , report Potency.
14.8 µM (active)
